Items are presented alongside their recorded viability at 1 µM.
# assay: Toxicity of compound against the cell strain RAW 264.7 (MTT)
# Assay type: cell-based
# condition.context: mouse, raw 264.7 cells, 1 × 10^-6 M, read-out: Ratio of optical absorbance
Kindly report the value followed by its unit.

Use these answered entries as a reference point.
>>> result("COC(OC)c1cc(=O)n2ncc(-c3ccc(Sc4ccccc4)cc3)c2[nH]1 [Example 24]")
"108%"
>>> result("CSCc1cc(=O)n2ncc(-c3ccc(Sc4ccccc4)cc3)c2[nH]1 [Example 29]")
"89.7%"
>>> result("COCCOCc1cc(=O)n2ncc(-c3ccc(Sc4ccccc4)cc3)c2[nH]1 [Example 14]")
"94.2%"
>>> result("O=c1cc(COc2ccccc2)[nH]c2c(-c3ccc(Sc4ccccc4)cc3)cnn12 [Example 12]")
"103%"
>>> result("COCc1cc(=O)n2ncc(-c3ccc(Sc4ccccc4)cc3)c2[nH]1 [Example 1]")
"109%"

Next:
// query Would you mind telling me what viability at 1 µM value was observed for COCCc1cc(=O)n2ncc(-c3ccc(Sc4ccccc4)cc3)c2[nH]1 [Example 22] ?
// result 101%

* * *

Form field: response vs control in vivo at 20 mg/kg (one value per entry).
# Tested on: contact hypersensitivity
# assay: Contact hypersensitivity model in mouse (atopic dermatitis model)
# Format: in vivo
# condition.context: po, 20 mg/Kg p.o., 30 minutes before causal induction, 24 hours, read-out: Control % (intumescence of the pinna, untreated = 100)
The response must be a number in % with no trailing unit.

// query For the record Oc1cc(CCl)nc2cc(-c3ccccc3)nn12 , what value of response vs control in vivo at 20 mg/kg is listed for contact hypersensitivity?
// result 103

// query Hi! What's the reported response vs control in vivo at 20 mg/kg for Cc1cc(O)n2ncc(-c3ccc(Sc4ccccc4)cc3)c2n1 on contact hypersensitivity?
// result 90

// query Which response vs control in vivo at 20 mg/kg is reported with contact hypersensitivity for this entry: Oc1ccnc2c(-c3ccc(Sc4ccccc4)cc3)cnn12 ?
// result 100

* * *

# assay: MTT assay, index of toxicity for A 549 cells
# Type: cell-based
# condition.context: human, a549 cells, 1 × 10^-7 M, control 100.0, read-out: Ratio of optical absorbance
# Description: Test was conducted in accordance with the method as described in J. Immunol. Methods, Vol. 94, pp. 57-68, (1986). Cell strain RAW 264.7 derived from the macrophage of mouse was incubated similarly as in the method of Test Example 1(1). […] The supernatant of culture medium was taken off, then the cells were collected by using 1% SDS solution and the optical absorbance at 570-630 nm of the SDS solution was measured. […]
endpoint: viability at 24 h, 0.1 µM (%)
Response body: numeric value in %, unit text excluded.

// query viability at 24 h, 0.1 µM lookup needed for COCc1cc(=O)n2ncc(-c3ccc(Sc4ccccc4)cc3)c2[nH]1 , thanks.
// result 108

* * *

# assay: MTT assay, index of toxicity for A 549 cells
# Format: cell-based
# condition.context: human, a549 cells, 1 × 10^-5 M, control 100.0, read-out: Ratio of optical absorbance
# Description: Test was conducted in accordance with the method as described in J. Immunol. Methods, Vol. 94, pp. 57-68, (1986). Cell strain RAW 264.7 derived from the macrophage of mouse was incubated similarly as in the method of Test Example 1(1). […] The supernatant of culture medium was taken off, then the cells were collected by using 1% SDS solution and the optical absorbance at 570-630 nm of the SDS solution was measured. […]
endpoint: viability at 24 h, 10 µM (%)
Form entry: value (%) — number only.

// query Look up viability at 24 h, 10 µM: COCc1cc(=O)n2ncc(-c3ccc(Sc4ccccc4)cc3)c2[nH]1 [Example 1]
// result 126

* * *

# Test system: formation of NO in cell strain RAW 264.7
# assay: Activity for inhibiting the formation of NO (LPS-stimulated RAW 264.7 cells, Griess reagent)
# Assay type: cell-based
# condition.context: Mus musculus, RAW264.7, 1 × 10^-6 M, LPS 100 ng/ml, 24 hours, read-out: Ratio of formed amount of NO (reference culture medium = 100)
Measured activity at 1 µM, listed per entry for reference.
Output spec: scalar in %, unitless text.

Worked examples, 7 compounds total:
>>> recorded_number("COCc1cc(=O)n2nc(COC)c(-c3ccc(Sc4ccccc4)cc3)c2[nH]1 [Example 42]")
55.4
>>> recorded_number("COC(OC)c1cc(=O)n2ncc(-c3ccc(Sc4ccccc4)cc3)c2[nH]1 [Example 24]")
67.3
>>> recorded_number("COCCc1cc(=O)n2ncc(-c3ccc(Sc4ccccc4)cc3)c2[nH]1 [Example 22]")
60.3
>>> recorded_number("O=c1cc(COc2ccccc2)[nH]c2c(-c3ccc(Sc4ccccc4)cc3)cnn12 [Example 12]")
67
>>> recorded_number("COCCOCc1cc(=O)n2ncc(-c3ccc(Sc4ccccc4)cc3)c2[nH]1 [Example 14]")
64.4
>>> recorded_number("O=c1cc(C2CCCO2)[nH]c2c(-c3ccc(Sc4ccccc4)cc3)cnn12 (centres unmarked) [Example 19]")
63.1
>>> recorded_number("COCc1cc(=O)n2ncc(-c3ccc(Sc4ccccc4)cc3)c2[nH]1 [Example 1]")
56

--- query ---
// query Entry CSCc1cc(=O)n2ncc(-c3ccc(Sc4ccccc4)cc3)c2[nH]1 [Example 29] : reported activity at 1 µM = ?
// result 52.2

* * *

Recorded response vs control in vivo at 20 mg/kg values for a group of molecules are listed next.
# Test system: contact hypersensitivity
# assay: Contact hypersensitivity model in mouse (atopic dermatitis model)
# Type: in vivo
# condition.context: po, 20 mg/Kg p.o., 30 minutes before causal induction, 24 hours, read-out: Control % (intumescence of the pinna, untreated = 100)
Enter your answer as a number in %; do not include the unit.

>>> recorded_number("Oc1ccnc2c(-c3cccc(C(F)(F)F)c3)cnn12 [(5)]")
90.4
>>> recorded_number("COCc1nn2c(O)ccnc2c1-c1ccc(Sc2ccccc2)cc1 [(3)]")
104

// query Would you mind telling me what response vs control in vivo at 20 mg/kg value was observed for Oc1cc(C2CC2)nc2c(-c3ccc(Sc4ccccc4)cc3)cnn12 [(1)] ?
// result 99

// query For the molecule COc1cc(-c2c(-c3ccccn3)nn3c(O)cc(C)nc23)ccc1Sc1ccccc1 [(6)] , what response vs control in vivo at 20 mg/kg is on record?
// result 94.7

// query What value of response vs control in vivo at 20 mg/kg has been recorded for this entry: Oc1cc(CCl)nc2cc(-c3ccc(Sc4ccccc4)cc3)nn12 [(7)]
// result 113
